LD50 at 24 h for assorted compounds
Assay: acute toxicity, LD50 /24 hrs/kg body weight, intravenous route, method according to Miller and Tainter
Details: in vivo
Structures can show the parent of a compound that is named as a salt.
Quick note: give the figure in mg/kg, leave out the unit.

compound	unit-of-measure	measured
Cc1c2sccc2cc[n+]1CC(=O)c1ccccc1.[Br-]	mg/kg	35
Clc1ccc(CN2CCc3ccsc3C2)s1	mg/kg	135

Field LD50 at 24 h (entry COc1ccc(CN2CCc3ccsc3C2)cc1OC ) reads 22

Data point: COc1cccc(CN2CCc3ccsc3C2)c1 [Derivative No. 20, hydrochloride] ; LD50 at 24 h = 63

For reference, reported LD50 at 24 h for OC(CN1CCc2ccsc2C1)C(Cl)(Cl)Cl (stereo not drawn) stands at 18
